Subject Of Test: T1, biotinylated goat anti-human kappa light chain
T1 construct: positive control of the ELISA
Method: ELISA, positive control; note: test concentration or dose not given here
Quantity Name: optical density (OD)
Please give a number only; it is taken to be in OD.

[ask] Read off the recorded optical density for 368_C04 (antibody, V domains shown, Group II) VH: EVQLLESGGGLVQPGGSLRLSCAASGFTFDSYGMHWVRQAPGKGLEWVSNINYNGGYTSYADSVKGRFTISRDNSKNTLYLQMNSLRAEDTAVYYCARAATWHDTHLDYWGQGTLVTVSS VL: DIQMTQSPSSLSASVGDRVTITCRASQSILSYVNWYQQKPGKAPKLLIYAATSRASGVPSRFSGSGSGTDFTLTISSLQPEDFATYYCQQSYSTPLTFGGGTKVEIK
[reply] 3.67

[ask] Read off the recorded optical density for 366_E08 (antibody, V domains shown, Group III) VH: EVQLLESGGGLVQPGGSLRLSCAASGFTFSDYSMNWVRQAPGKGLEWVSNINYNGGYTSYADSVKGRFTISRDNSKNTLYLQMNSLRAEDTAVYYCARGANWHDTHLDYWGQGTLVTVSS VL: DIQMTQSPSSLSASVGDRVTITCRASQSIVTYLNWYQQKPGKAPKLLIYAATSRHSGVPSRFSGSGSGTDFTLTISSLQPEDFATYYCQQSYSNPLTFGGGTKVEIK
[reply] 3.35

[ask] Read off the recorded optical density for 368_A06 (antibody, V domains shown, Group I) VH: EVQLLESGGGLVQPGGSLRLSCAASGFTFDSYSMHWVRQAPGKGLEWVAGINYNSGYKGYADSVKGRFTISRDNSKNTLYLQMNSLRAEDTAVYYCARAANWHDTHLDYWGQGTLVTVSS VL: DIQMTQSPSSLSASVGDRVTITCRASQSILSYVNWYQQKPGKAPKLLIYAATSRHSGVPSRFSGSGSGTDFTLTISSLQPEDFATYYCQQSYNSPLTFGGGTKVEIK
[reply] 3.28

The measured values listed here are drawn from patent US20210380703A1.
